The origin of these recorded values is ChEMBL document CHEMBL1201862.

I'd be grateful if you could share measured GI50 for these entries.
- Tested on: TK-10
- test: NCI tumour cell line growth inhibition, 48 h
Calls of active or inactive are those of the source. No stated cut-off is given here; in the data, active = GI50 up to about 1.1 µM and inactive = higher. Where a SMILES comes first, the peptide text is derived from it. [ ]: non-standard residue; d: D form. pGlu = O=C1CC[CH](C(=O)O)N1

Below, 8 compounds whose answers are already recorded.
compound	GI50
C=CCN1/C(=C(\C#N)c2nc3ccccc3[nH]2)Sc2c1nc[nH]c2=O	> 100 µM (inactive)
CC(NC(=O)C1CCC(=O)N1)C(=O)N1CCCC1C(N)=O (stereo not drawn) ([pGlu]-Ala-Pro-NH2; configuration not given here)	> 100 µM (inactive)
Clc1nc(NCCc2ccccc2)c2ncn(-c3ccccc3)c2n1	21.1 µM (inactive)
CN(C)c1ccc(/C(Br)=C2\OC(=O)c3ccccc32)cc1	> 100 µM (inactive)
CC(CO)(CO)N1C(=O)C2C3c4ccccc4C(c4ccccc43)C2C1=O (centres undefined)	> 100 µM (inactive)
c1cc2c(cc1C(N1CCNCC1)N1CCNCC1)OCO2	> 100 µM (inactive)
COC(=O)C12CC3CC(CC(C(=O)O)(C3)C1)C2	> 100 µM (inactive)
COc1cc2c(/C=C3/C(=O)Nc4ccc(O)cc43)c(Cl)n(Cc3ccccc3)c2cc1C	3.36 µM (inactive)

Kindly review the next compound as well.
According to the records, this compound COc1cccc2c1C(=O)c1c(O)c3c(c(O)c1C2=O)C[C@@](O)(C(C)=O)CC3OC1CC(OC2CC(N)C(O)C(C)O2)C(O)C(C)O1 (some centres undefined) displays GI50 of > 100 µM (inactive)

* * *

- System: OVCAR-4
- test: NCI tumour cell line growth inhibition, 48 h
The source made the active and inactive calls. No stated cut-off is given here; in the data, active = GI50 up to about 1.1 µM and inactive = higher.
measurement-label: GI50

compound	GI50
N=C(N)NCCCC(NC(=O)c1cccc2c(=O)c3ccccc3[nH]c12)C(=O)O (stereo not given)	> 100 µM (inactive)
CN(C)CCn1c(=O)nc2c3c(c([N+](=O)[O-])ccc31)Nc1ccc(O)cc1-2	9.68 µM (inactive)
Cc1nc(-n2nc(-c3ccccc3)cc2-c2ccccc2)sc1C(/C=C\c1ccc([N+](=O)[O-])cc1)=N/NC(=S)NN	26.2 µM (inactive)
CCOC(=O)C(=O)CC1=Nc2ccccc2SC(c2cccc(C)c2)C1 (stereo not given)	18 µM (inactive)

Measured GI50 (OVCAR-4), entry `Cc1c2cnccc2nc2[nH]c3ccncc3c12` : 11.7 µM (inactive)

* * *

- System: COLO 205
- test: NCI tumour cell line growth inhibition, 48 h
Activity calls are given as the source filed them. Cut-off read from the data, not from the text of the source: active = GI50 up to about 1.1 µM and inactive = higher.
measurement-label: GI50

compound	measurement-label	test-result
CNCCCNC1(c2cc3ccccc3s2)CCCCC1	GI50	1.79 µM (inactive)
Cc1ccc(/C=N/Nc2ccc3ccccc3n2)s1	GI50	12.9 µM (inactive)
NC1=Nc2ccccc2Sc2cccc(F)c21	GI50	61.7 µM (inactive)
COC(=O)/C(C#N)=C1\NN=NN1c1ccc(OC)cc1	GI50	> 100 µM (inactive)
CN(C)c1ccc(/C(Br)=C2\OC(=O)c3ccccc32)cc1	GI50	56.1 µM (inactive)

Return reported GI50 values for all items listed beneath this line.
1. CC(NNC(=O)c1ccc[n+]([BH2-]C#N)c1)c1ccccc1 (stereo unspecified)
2. Cc1ccc(-n2c(=S)[nH]c3ccc(Br)cc3c2=O)cc1
3. CC1CC(=O)C(C(O)CC2CC(=O)N(c3ccccc3)C(=O)C2)C(C)C1 (stereo unspecified)
4. NS(=O)(=O)c1nnc(NS(=O)(=O)c2ccccc2C(=O)O)s1
5. Brc1ccc(-c2nc(-c3ccc(Br)cc3)n(-c3ccccc3)n2)cc1
6. CCC(=O)Nc1ccc(NCC(=O)Nc2ccc(Cl)cc2)cc1

1. > 100 µM (inactive)
2. > 100 µM (inactive)
3. > 100 µM (inactive)
4. > 100 µM (inactive)
5. 27.2 µM (inactive)
6. 16.9 µM (inactive)
